Could you please report measured TGI for the items listed next?
system: K-562 leukemia; experiment: NCI tumour cell line growth inhibition, 48 h

Examples with answers:
CC(=O)O[C@H]1C(=O)[C@@]2(C)[C@H]([C@H](OC(=O)c3ccccc3)[C@]3(O)C[C@H](OC(=O)[C@H](OC(=O)OCCC(O)CO)[C@@H](NC(=O)c4ccccc4)c4ccccc4)C(C)=C1C3(C)C)[C@]1(OC(C)=O)CO[C@@H]1C[C@@H]2O (stereo not given in full) :: 49.8 µM
CC(=O)OC(/C=C1/C=CC(=O)O1)COC(=O)c1ccccc1 (stereo not given) :: > 31.2 µM

Hello, I would appreciate it if you could give TGI for each entry below.
1. CC1=NN(c2ccccc2)C(=O)C1N=Nc1ccc([As](=O)(O)O)c(O)c1 (stereo not given)
2. O=c1cc(-c2ccccc2)[nH]c2cc(F)c(F)cc12
3. Cn1cc(C2=C(c3cccc4ccccc34)C(=O)NC2=O)c2ccccc21
4. CCN1CCC(O)(c2ccc(C)cc2)C(C(=O)c2ccc(C)cc2)C1 (stereo not given)
5. Cc1cc(NC(=S)Nc2ccccc2)c(NC(=S)Nc2ccccc2)cc1C

1: > 100 µM; 2: > 100 µM; 3: > 25 µM; 4: > 100 µM; 5: 41.2 µM

----------
tested on: PC-3 prostate; test: NCI tumour cell line growth inhibition, 48 h; in the data active = GI50 below about 0.43 µM; inactive = the rest
Assign a class; possible classes are yes (1) (active), no (0) (inactive)

Below are worked cases with known answers.
O=C(CN1CCN(c2ncnc3ccccc23)CC1)Nc1ccc(Cl)cc1C(=O)c1ccccc1Cl :: no (0)
CC[C@@H](C(=O)[C@@H](C)[C@@H](O)[C@H](C)[C@@H]1O[C@@H]([C@@H](CC)C(=O)O)CC[C@@H]1C)C1O[C@]2(C=CC(=O)[C@]3(CC[C@@](C)([C@H]4CC[C@](O)(CC)[C@H](C)O4)O3)O2)[C@H](C)C[C@@H]1C (stereo partly drawn) :: yes (1)

What call does the record list for `O=c1c2cccc(Cl)c2sc2c(NCCCNCCO)nc3ccccc3c12` ?
no (0)

Field entry: `CCOc1c(Br)cc(C2C(C(=O)OC)=CN(C)C=C2C(=O)OC)cc1OC`
no (0)

Field entry: `Oc1ccc(-c2nnc3sc(-c4ccc(F)c(Oc5ccccc5)c4)nn23)cc1`
no (0)

Field entry: `C[C@@H]1CN(C(=O)c2ccc(NC(=O)c3cc(O[C@H](C)c4c(Cl)ccc(F)c4Cl)c(N)nn3)cc2)C[C@H](C)N1`
no (0)

Field entry: C/C=C(\C)C(=O)N[C@H]1CC[C@]2(C)C3CC[C@@]4(C)C(CC[C@@H]4C(C)N(C)C)C3CCC2[C@H]1OC(C)=O (stereo partly drawn)
no (0)

Field entry: `O=[N+]([O-])c1ccc(Br)c([N+](=O)[O-])c1`
no (0)

----------
test system: U251 CNS; test: NCI tumour cell line growth inhibition, 48 h
QUANTITY NAME: TGI (µM)
Answers are plain numbers, in µM.

Examples with answers:
O=C(Nc1ccccc1O)c1cccc(NC2=C(Cl)C(=O)N(Cc3ccccc3)C2=O)c1 :: 13.9
Cn1c2ccccc2c2c(-c3ccccc3)[n+]3ccccc3nc21 :: 64.7
CC1=CC(=NC(=O)CBr)C=C/C1=N\S(=O)(=O)c1ccccc1 :: 12.2

Hello, I would appreciate it if you could give TGI for each entry below.
1. Cc1ccc(CC(=O)Nc2ccc(NC(=O)/C=C/NC(=O)/C=C/c3ccc(-c4ccccc4)cc3)cc2C(=O)c2ccccc2)cc1
2. Oc1ccc(-c2nnc3sc(-c4ccc(F)c(Oc5ccccc5)c4)nn23)cc1

1. 4.35
2. 36.5

----------
system: SK-OV-3 ovarian; assay: NCI tumour cell line growth inhibition, 48 h
Could you please report measured GI50 for the items listed next?

COc1ccc2c(c1)c(-c1ccc(-c3cn(S(=O)(=O)c4ccccc4)c4ccc(OC)cc34)s1)cn2S(=O)(=O)c1ccccc1 :: > 100000 nM
CC1CC2(C)ON=C(c3ccccc3)N2c2ccccc2S1 (stereo unspecified) :: 9550 nM
COc1ccc(-c2[nH]c3ccccc3c2C=C(C#N)C#N)cc1 :: 434 nM

Hello, I would appreciate it if you could give GI50 for each entry below.
1. COc1ccc(N(CC(=O)NCCC[Te]c2ccccc2)C(=O)c2ccccc2)cc1
2. O=C(CN1CCN(c2ncnc3ccccc23)CC1)Nc1ccc(Cl)cc1C(=O)c1ccccc1Cl
3. COc1cc(NS(C)(=O)=O)ccc1Nc1c2ccc(Cl)cc2nc2c(OC)cccc12

1. 2550 nM
2. 3500 nM
3. 117 nM

----------
system: SW-620 colon; experiment: NCI tumour cell line growth inhibition, 48 h; in the data active means GI50 below about 0.43 µM; inactive means the rest
Assign a class; possible classes are YES = active, NO = inactive

Below are worked cases with known answers.
C[C@@H]1CN(C(=O)c2ccc(NC(=O)c3cc(O[C@H](C)c4c(Cl)ccc(F)c4Cl)c(N)nn3)cc2)C[C@H](C)N1 :: NO
CC[C@H](C)[C@H]1NC(=O)[C@@H](N[C@](C)(O)[C@@H](N)CC(C)C)[C@@H](C)OC(=O)[C@H](Cc2ccc(OC)cc2)N(C)C(=O)[C@@H]2CCCN2C(=O)[C@H](CC(C)C)NC(=O)[C@@H](C)C(=O)[C@H](C(C)C)OC(=O)C[C@@H]1O :: YES
Cc1cc(N2CCCCC2)nc(N(CCCNc2ccnc3cc(Cl)ccc23)Cc2ccco2)n1 :: NO
Oc1ccc2cc(Br)ccc2c1-c1c(O)ccc2cc(Br)ccc12 :: NO

# input for lookup
What call does the record list for CC1CC2(C)ON=C(c3ccccc3)N2c2ccccc2S1 (stereo not given) ?
NO

----------
tested on: HS 578T breast; assay: NCI tumour cell line growth inhibition, 48 h
Could you please report measured log10 TGI for the items listed next?
Note the log scale: values are log10 of TGI expressed in µM.

Examples with answers:
CCOC(=O)c1ccc(Nc2nc3cc(C(F)(F)F)ccc3nc2-c2ccccc2)cc1 :: 1.93
O=C(CN1CCN(c2ncnc3ccccc23)CC1)Nc1ccc(Cl)cc1C(=O)c1ccccc1Cl :: 0.57
CC[C@H](C)[C@H]1NC(=O)[C@@H](N[C@](C)(O)[C@@H](N)CC(C)C)[C@@H](C)OC(=O)[C@H](Cc2ccc(OC)cc2)N(C)C(=O)[C@@H]2CCCN2C(=O)[C@H](CC(C)C)NC(=O)[C@@H](C)C(=O)[C@H](C(C)C)OC(=O)C[C@@H]1O :: -0.33
O=C(Nc1ccccc1O)c1cccc(NC2=C(Cl)C(=O)N(Cc3ccccc3)C2=O)c1 :: 1.25
CCN(CC)CC(=O)Nc1c(C(N)=O)nnn1Cc1cc(Cl)c(C(=O)c2ccc(Cl)cc2)c(Cl)c1 :: 1.52

Shifting focus to the molecule that follows.
What measured log10 TGI goes with `C=C1C(=O)O[C@@H]2C[C@@]3(C)CCC[C@H](C)C3=C[C@H]12` ?
1.28

----------
test system: SN12C renal; assay: NCI tumour cell line growth inhibition, 48 h
QUANTITY NAME: TGI (µM)
One number for each entry, in µM.

Hello, I would appreciate it if you could give TGI for each entry below.
1. Cc1cc(N2CCCCC2)nc(N(CCCNc2ccnc3cc(Cl)ccc23)Cc2ccco2)n1
2. O=C(Nc1ccccc1O)c1cccc(NC2=C(Cl)C(=O)N(Cc3ccccc3)C2=O)c1

[7.15, 7.57]

----------
test system: HCT-15 colon; assay: NCI tumour cell line growth inhibition, 48 h
Could you please report measured TGI for the items listed next?

Hello, I would appreciate it if you could give TGI for each entry below.
1. COC(=O)C1=C(O)c2cc(OC)c(OC)c(OC)c2[C@H](c2cc(OC)c(OC)c(OC)c2)C1C(=O)OC (some centres undefined)
2. [O-]c1c2c(nn1-c1ccccc1)c1ccccc1c[n+]2Cc1ccccc1
3. c1ccc(Cn2cc3c(c2-c2ccccc2)CCc2cnoc2-3)cc1
4. COc1ccc2c(=O)c(C)c(-c3ccccc3)oc2c1CN(C)C
5. COc1cc(OC)cc(Oc2nc3ccccc3nc2C(=O)O)c1
6. Nc1nc(N)c(N=O)c(Nc2ccc(O)cc2)n1
7. CC(C)(C)NCc1cc(Nc2ccnc3cc(Cl)ccc23)cc(-c2ccc(Cl)cc2)c1O
8. O=C(O)CCCCCCC[C@@H]1S[C@H]1CCCCCCO

["> 100 µM", "> 100 µM", "> 100 µM", "> 100 µM", "> 100 µM", "> 100 µM", "9.96 µM", "> 100 µM"]

Hello, I would appreciate it if you could give TGI for each entry below.
1. Cn1c2ccccc2c(=S)c2ccccc21
2. COc1ccc2cc(C(C)C(O)c3cc(F)c(F)c(F)c3F)ccc2c1 (centres undefined)
3. O=C(O)CNC(=O)CO/N=C1/C(c2c(O)[nH]c3ccccc23)=Nc2ccccc21
4. COc1cc2nc3sc(C(=O)Nc4ccc(C(=O)OC(C)C)cc4)c(C(=O)Nc4ccc(Cl)cc4C)n3c(=O)c2cc1OC
5. N#C/C(=C\c1ccc(-c2ccc(Cl)cc2)o1)C(=O)Nc1ncc(Cc2ccc(Cl)cc2)s1
6. CNC(=O)CN(CC(=O)NC)C(=O)NC
7. COc1cc(C2=NN(C)C(c3ccc([N+](=O)[O-])o3)C2)cc(OC)c1OC (centres undefined)
8. COc1cc(/C=C2\[C@H]3c4c(c(OC)c(C)c(OC)c4OC)C[C@@H](C(=O)N2Cc2ccccc2)N3C(=O)OCC(C)C)c(OC)c(C)c1OC

> 100 µM
> 100 µM
> 100 µM
> 100 µM
> 100 µM
> 100 µM
32.7 µM
> 100 µM

Hello, I would appreciate it if you could give TGI for each entry below.
1. C/C=C(C)/C=C/CC(C)CCC=C(C)C (centres undefined)
2. CC(C)=CCC[C@@H](C)C1=C(O)C(Nc2ccccc2Br)=C(C)C(=O)C1=O
3. CC(C)=CC1C(COC(=O)c2cc3c(cc2Cl)OCO3)C1(C)C (centres undefined)
4. CC1=NN(c2ccccc2)C(=O)C1=C1SCCS1
5. CC(=O)OC1CCN(C(=O)c2ccccc2)CC1CC1(c2cc3ccccc3[nH]2)OCCO1 (centres undefined)

1. > 100 µM
2. 22.9 µM
3. 92.6 µM
4. > 59.7 µM
5. > 100 µM

Hello, I would appreciate it if you could give TGI for each entry below.
1. C/C(=C\C(C)COCc1ccccc1)[C@H](COCc1ccccc1)OCc1ccccc1 (some centres undefined)
2. COc1ccc(C[C@@H]2Cc3cc(OC)c(OC)cc3CN2C)cc1
3. COc1cccc(C2c3cc4c(cc3OC(C)(O)C2C)OCO4)c1O (centres undefined)
4. COc1cc(C2c3cc4c(cc3OC(NC3CCCCC3)C2C)OCO4)cc(OC)c1OC (centres undefined)
5. CC(=N/NC(=S)N1CCCCC1)/C(=N\NC(=S)N1CCCCC1)c1ccccc1
6. COc1ccc(NC(=O)CC(=O)N2N=C(N3CCCCC3)CC2c2ccccc2)cc1 (centres undefined)
7. O=C(O)/C=C/n1c2ccccc2c(=O)c2ccccc21

["> 100 µM", "> 100 µM", "27.8 µM", "> 45.4 µM", "4.56 µM", "> 100 µM", "> 100 µM"]
